Each recorded value in this set is attributed to patent US20150196651A1.

- assay_target: T1, human PrRP receptor GPR10 (human, UniProt P49683 1-370)
- T1 construct: whole, on cells; also called GPR10 human receptor transfected in CHO cells; human GPR10 receptor
- T1 sequence (looked up): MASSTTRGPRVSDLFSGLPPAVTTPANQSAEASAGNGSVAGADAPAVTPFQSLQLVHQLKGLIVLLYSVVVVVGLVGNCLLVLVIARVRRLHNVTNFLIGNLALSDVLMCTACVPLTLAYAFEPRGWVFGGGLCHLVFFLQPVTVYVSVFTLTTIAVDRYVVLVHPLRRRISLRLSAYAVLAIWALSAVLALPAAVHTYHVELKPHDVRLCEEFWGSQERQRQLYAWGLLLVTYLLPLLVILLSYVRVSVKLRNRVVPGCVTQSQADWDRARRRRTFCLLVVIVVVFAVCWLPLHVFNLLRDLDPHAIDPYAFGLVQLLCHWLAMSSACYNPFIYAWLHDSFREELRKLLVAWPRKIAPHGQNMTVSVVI
- experiment_description: competition with 125I-human PrRP31, CHO cells with human GPR10
pKi: −log10 of the molar value. Numbered stars: 1 amine (or outer) side, 2 acyl side, 3 side chain; on linkers, the order of the positions; unused ones are H or OH. Side chains are listed from the residue outwards. Ends that are not written are not given here. * marks the point of attachment. γGlu = O=C(O)[C@H](CCC(=O)[*:2])N[*:1]; Palmitoyl = CCCCCCCCCCCCCCCC(=O)*; GABA = NCCCC(=O)O
property_name: pKi

binder: QHSMETRTPDINPAWYTGRGIRPVGRF-NH2 (shortened PrRP31 analog; also called 37 short) [analog no. 37]
pKi: 8.23
--
binder: SRTHRHSMEIK([γGlu-Palmitoyl])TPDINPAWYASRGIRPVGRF-NH2 (also called compound 52) [analog no. 52]
pKi: 8.23
--
binder: SRTHRHSMEIK([GABA-Palmitoyl])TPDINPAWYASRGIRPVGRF-NH2 [analog no. 53]
pKi: 8.04
